target.desc: recombinant human TTR F87M/L110M (human, UniProt P02766 21-147)
protocol: SPR (Biacore), mAb captured on anti-human chip, TTR F87M/L110M as analyte
outcome.measure: koff (s⁻¹)
Record the value in s⁻¹, omitting the unit from your answer.

Worked examples follow.
[
  {
    "binder": "Hu14G8 H2L2 (antibody, human IgG1, kappa, V domains shown, also called humanized 14G8 VHv2/VLv2) VH: EVQLVESGGGLVQPGGSLKLSCAASGFTFSSYTMSWVRQTPEKRLELVAEINNSGDTTYYPDTVKGRFTISRDNAKNTLYLQMSSLKSEDTAMYYCARHYYYGGGYGGWFFDVWGQGTLVTVSS VL: DIVMTQSPLSLPVTPGEPASISCRSNKSLLHSNGNTYLYWFLQKPGQSPQLLIYRVSNLASGVPDRFSGSGSGTDFTLKISRVEAEDVGVYYCMQHLEYPLTFGQGTKLEIKR",
    "outcome.measure": "koff",
    "readout.number": 0.000683
  },
  {
    "binder": "Hu14G8 H2L1 (antibody, human IgG1, kappa, V domains shown, also called humanized 14G8 VHv2/VLv1) VH: EVQLVESGGGLVQPGGSLKLSCAASGFTFSSYTMSWVRQTPEKRLELVAEINNSGDTTYYPDTVKGRFTISRDNAKNTLYLQMSSLKSEDTAMYYCARHYYYGGGYGGWFFDVWGQGTLVTVSS VL: DIVMTQSAPSLPVTPGESVSISCRSNKSLLHSNGNTYLYWFLQKPGQSPQLLIYRVSNLASGVPDRFSGSGSGTAFTLKISRVEAEDVGVYYCMQHLEYPLTFGQGTKLEIKR",
    "outcome.measure": "koff",
    "readout.number": 0.000693
  },
  {
    "binder": "Hu14G8 H3L1 (antibody, human IgG1, kappa, V domains shown, also called humanized 14G8 VHv3/VLv1) VH: EVQLVESGGGLVQPGGSLKLSCAASGFTFSSYTMSWVRQTPEKRLELVAEINNSGDTTYYPDTVKGRFTISRDNAKNTLYLQMNSLRAEDTAVYYCARHYYYGGGYGGWFFDVWGQGTLVTVSS VL: DIVMTQSAPSLPVTPGESVSISCRSNKSLLHSNGNTYLYWFLQKPGQSPQLLIYRVSNLASGVPDRFSGSGSGTAFTLKISRVEAEDVGVYYCMQHLEYPLTFGQGTKLEIKR",
    "outcome.measure": "koff",
    "readout.number": 0.000677
  }
]

Form field koff, entry Hu14G8 H2L3 (antibody, human IgG1, kappa, V domains shown, also called humanized 14G8 VHv2/VLv3) VH: EVQLVESGGGLVQPGGSLKLSCAASGFTFSSYTMSWVRQTPEKRLELVAEINNSGDTTYYPDTVKGRFTISRDNAKNTLYLQMSSLKSEDTAMYYCARHYYYGGGYGGWFFDVWGQGTLVTVSS VL: DIVMTQSPLSLPVTPGEPASISCRSSKSLLHSNGNTYLYWFLQKPGQSPQLLIYRVSNLASGVPSRFSGSGSGTDFTLKISRVEAEDVGVYYCMQHLEYPLTFGQGTKLEIKR : 0.000318
